Catalogue of binders with associated % Inhibition at 10 ug/mL of IL-1β-induced NF-κB signaling, HEK-Blue IL-1β cells
Biological target: T1, human interleukin 1 receptor accessory protein, membrane-bound form on cells (human, UniProt Q9NPH3 21-570)
T1 sequence: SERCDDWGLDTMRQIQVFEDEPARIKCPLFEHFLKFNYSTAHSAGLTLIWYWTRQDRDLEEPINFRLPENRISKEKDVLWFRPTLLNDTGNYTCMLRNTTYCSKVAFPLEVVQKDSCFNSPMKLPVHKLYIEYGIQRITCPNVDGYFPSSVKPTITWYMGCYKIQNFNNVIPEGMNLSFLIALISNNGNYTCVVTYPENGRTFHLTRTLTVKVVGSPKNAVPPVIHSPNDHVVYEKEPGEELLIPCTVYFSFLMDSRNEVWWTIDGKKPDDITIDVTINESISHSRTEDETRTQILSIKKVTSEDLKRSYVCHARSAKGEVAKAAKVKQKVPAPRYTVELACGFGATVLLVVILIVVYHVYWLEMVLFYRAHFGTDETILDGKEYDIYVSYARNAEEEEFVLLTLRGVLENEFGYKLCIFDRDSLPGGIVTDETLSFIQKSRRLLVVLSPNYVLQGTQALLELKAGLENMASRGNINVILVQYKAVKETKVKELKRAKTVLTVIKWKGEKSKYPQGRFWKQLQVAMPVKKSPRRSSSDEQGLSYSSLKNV
Experiment: cell-based or functional assay
Measured property: % Inhibition at 10 ug/mL of IL-1β-induced NF-κB signaling, HEK-Blue IL-1β cells (%)

Binder	Scale unit	Result number
anti-IL1-RAP antibody clone 54.8H8 (antibody, V domains shown, Mouse monoclonal antibody) VH: EVQLVESGGGLVKPGGSLKLSCAASGFSFSSYGMSWVRQSPEKRLEWVAEITSGGSHTYYPDTVTGRFTISRDNAKNTLYLEMSSLRSEDTAMYYCSRSYGNYVMDYWGQGTSVTVSS VL: QIVLTQSPAIMSASPGEKVTMTCSASSSVIYIYWFQQKPGSSPRLLIYDTSNLASGVPLRFSGSGSGTSYSLTISRMETEDVSTYYCQQWNSYPPTFGGGTKLEIK	%	50.8
anti-IL1-RAP antibody clone 46.1D2 (antibody, V domains shown, Mouse monoclonal antibody) VH: QVQLQQSGPELVKPGASVKISCKASGYGFSSSWMNWVKQRPGKGLEWIGRIYPGDGNTNYYGEFKGKATLTADKSSSTAYMQLNSLTSEDSAVYFCARNDGYPAWFTYWGQGTLVTVSA VL: DIQMTQTTSSLSASLGDRVTISCSASQGISNYLNWYQQKPDGSVKLLIYYTSTLHSGVPSRFSGSGSGTDYSLTISNLEPEDIATYYCQQYSYLPWTFGGGTKLEIK	%	69.2
anti-IL1-RAP antibody clone 54.9E9 (antibody, V domains shown, Mouse monoclonal antibody) VH: QIQLVQSGPELKKPGETVKISCKASSYTFTDYSMHWVKQAPGKGLKWMGWINTETGEPRYADDFKGRFAFSLETSASTAYLQINNLKNEDTATYFCARFLLHFDYWGQGTILTVSS VL: QIVLTQSPAIMSASPGEKVTMTCSASSSVSYMHWYQQKTGTSPKRLIYDTSKLASGVPARFSGSGSGTSYSLTISSMEAEDAATYYCHQRSYYPLTFGAGAKLELK	%	69.1
anti-IL1-RAP antibody clone 42.1D3 (antibody, V domains shown, Mouse monoclonal antibody) VH: QIQLVQSGPELKKPGETVNISCKASGYTFTDFSMHWVKQAPGKGLQWMGWINTETGEPTYADDFEARFAFSLATSANTAYLKINNLKNEDTATYFCARFFLHFDYWGQGTTLTVSS VL: DIVLTQSPATLSVTPGDSVSLSCRASQSINNDLHWYQQKSHESPRLLIKYASQSISGIPSRFSGSGSGTDFTLRINSVETEDFRMYFCQQSNNWPLTFGAGTKLEVK	%	59
anti-IL1-RAP antibody clone 54.15B5 (antibody, V domains shown, Mouse monoclonal antibody) VH: KWSWWSLGGGLAKPGGSLKLSCTASGFTFTSYVMSWVRQSPEKRLEWVAEISRGGSHTYYSDTVTGRFTISRDNANNALYLEMSSVRSADTAMYFCTRAYGNSEMDFWGQGTSVTVSS VL: QIVLTQSPAIMSASPGEKVTMTCSASSSISYIHWYRQKPGTSPKRWIYDTSNLASGVPARFSGSGSGTSYSLTIINMEAEDAATYYCHQRTYYPLTFGGGTRLELK	%	58.1
anti-IL1-RAP antibody clone 54.9D7 (antibody, V domains shown, Mouse monoclonal antibody from a hybridoma) VH: HVQLQQSGPELVRPGASVKLSCKASGYIFITYWMNWVKQRPGQGLEWVGQIFPASGTTYYNELFEGKATLTVDTSSNTAYMHLTSLTSEDSAVYYCARTDFYRYDGGYALDYWGQGTSLTVSS VL: DIVLTQSPISLAVFLGQRATISCRASQSVSTSGYSSMHWYQQKAGQPPKLLIKYASDLESGVPVRFSGSGSGTDFILNIHPVEVEDIATYYCHHSWGIPMYTFGGGTKLEIKR	%	92.3

Hello, the source for this data is patent US20190338038A1, in case you need it.
